tested on: biotinyl-Met-oxazolone; assay: self-aminoacylation, catalytic enhancement (BMO) (fold over background); higher = more active; k-Seq, kA / k0A0; sequences stand for … in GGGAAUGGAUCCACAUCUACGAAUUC…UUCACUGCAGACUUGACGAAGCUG
Variants at the floor of the assay were thinned out.
readout kind: self-aminoacylation
Number, no unit, nothing else.

CUACUCCAAACAAUCGAUCUG [Fam1A.1 aminoacylation ribozyme variant] = 0.48
CCACAUUUCAAACAAUCGGUC [Fam1B.1 aminoacylation ribozyme variant] = 1.33
AAGCUUGCUAAUAGUCGCAAG [Fam3.1 aminoacylation ribozyme variant] = 1.69

Query: Data request, read-out self-aminoacylation, for CCACACUUCGAUCAAUCGGUC [Fam1B.1 aminoacylation ribozyme variant]
Response: 0.767

Query: Data request, read-out self-aminoacylation, for GUUACCCUGGUCACCGAGUGA [Fam2.1 aminoacylation ribozyme variant]
Response: 11.2

Query: Data request, read-out self-aminoacylation, for AAAUUUGCUAAUAGUCGCAAC [Fam3.1 aminoacylation ribozyme variant]
Response: 1.31

Query: Data request, read-out self-aminoacylation, for AUUCACCUAGGGCAUCGCGUG [Fam2.2 aminoacylation ribozyme variant]
Response: 3.5

Query: Data request, read-out self-aminoacylation, for AUUCACCUGGGUCAUCGGUUG [Fam2.2 aminoacylation ribozyme variant]
Response: 0.904

Query: Data request, read-out self-aminoacylation, for ACUCUCCUAGGUCAUCGGGUG [Fam2.2 aminoacylation ribozyme variant]
Response: 8.52

* * *

This listing pairs sequences with measured self-aminoacylation.
tested on: biotinyl-Val-oxazolone; assay: self-aminoacylation, catalytic enhancement (BVO) (fold over background); higher = more active; k-Seq, kA / k0A0; sequences stand for … in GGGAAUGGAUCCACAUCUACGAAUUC…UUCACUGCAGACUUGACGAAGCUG
Variants at the floor of the assay were thinned out.

As a guide, the following entries are already answered.
UCGCACUUCAAGCAAUCGGUC [Fam1B.1 aminoacylation ribozyme variant] = 1.61
AUUUACCUAGGUCAUCUGGUG [Fam2.2 aminoacylation ribozyme variant] = 1.95
CUUCCCCUAGGUCAUCGGGUG [Fam2.2 aminoacylation ribozyme variant] = 5.07
CAACACUACAAGCAAUCGGUC [Fam1B.1 aminoacylation ribozyme variant] = 1.01

Query: What reported self-aminoacylation corresponds to AUUUAACUAGGUCAUCGGGUG [Fam2.2 aminoacylation ribozyme variant] on biotinyl-Val-oxazolone?
Response: 2.72

* * *

system: biotinyl-Val-oxazolone; experiment: self-aminoacylation, catalytic enhancement (BVO) (fold over background); higher = more active; k-Seq, kA / k0A0; sequences stand for … in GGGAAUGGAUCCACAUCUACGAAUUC…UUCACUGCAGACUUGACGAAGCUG
This sample holds only a part of the variants without activity.
Tick t if self-aminoacylation is 1 or greater. Tick f if self-aminoacylation is less than 1.

Sample answers from the record:
CUACUUCAAACAAACAGUCUG [Fam1A.1 aminoacylation ribozyme variant] = f
GAGUUUGCUAAUAGUCGCAAA [Fam3.1 aminoacylation ribozyme variant] = t
AUUACCCUGGUGAUCGAGUGA [Fam2.1 aminoacylation ribozyme variant] = t

Query: For this sequence, is measured self-aminoacylation 1 or higher? AUUCACCUAGAUCAACGGGUG [Fam2.2 aminoacylation ribozyme variant]
Response: t

Query: For this sequence, is measured self-aminoacylation 1 or higher? CCACACUUCGGGCAAUCGGUC [Fam1B.1 aminoacylation ribozyme variant]
Response: t

Query: For this sequence, is measured self-aminoacylation 1 or higher? AAGUUUGCUAAUAGUGGCACG [Fam3.1 aminoacylation ribozyme variant]
Response: f

Query: For this sequence, is measured self-aminoacylation 1 or higher? AUUCCCCUGGUCAUCGCGUGA [Fam2.1 aminoacylation ribozyme variant]
Response: t

Query: For this sequence, is measured self-aminoacylation 1 or higher? AUUCUCCUACGUCAUCGGGUG [Fam2.2 aminoacylation ribozyme variant]
Response: t

Query: For this sequence, is measured self-aminoacylation 1 or higher? CAGUUUGCUAGUAGUCGCAAG [Fam3.1 aminoacylation ribozyme variant]
Response: t

Query: For this sequence, is measured self-aminoacylation 1 or higher? AAAUUUGCUAAUACUCGCAAG [Fam3.1 aminoacylation ribozyme variant]
Response: t

Query: For this sequence, is measured self-aminoacylation 1 or higher? UUUAACCUGGUCAUCGAGUGA [Fam2.1 aminoacylation ribozyme variant]
Response: t

Query: For this sequence, is measured self-aminoacylation 1 or higher? CUAAUUCAAACAAUCGCUCUG [Fam1A.1 aminoacylation ribozyme variant]
Response: f

Query: For this sequence, is measured self-aminoacylation 1 or higher? CCACACUUCUAGCAAUCGAUC [Fam1B.1 aminoacylation ribozyme variant]
Response: f

Query: For this sequence, is measured self-aminoacylation 1 or higher? AAGUUUGUUUAUAGUCGCAAG [Fam3.1 aminoacylation ribozyme variant]
Response: t

Query: For this sequence, is measured self-aminoacylation 1 or higher? CAGUUUGCUAAUAGACGCAAG [Fam3.1 aminoacylation ribozyme variant]
Response: f

Query: For this sequence, is measured self-aminoacylation 1 or higher? AUUUCCCUGGUCCUCGAGUGA [Fam2.1 aminoacylation ribozyme variant]
Response: t

* * *

test system: biotinyl-Leu-oxazolone; test: self-aminoacylation, catalytic enhancement (BLO) (fold over background); higher = more active; k-Seq, kA / k0A0; sequences stand for … in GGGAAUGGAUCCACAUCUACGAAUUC…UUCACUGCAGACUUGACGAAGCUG
Variants at the floor of the assay were thinned out.
Tick y if self-aminoacylation is 1 or greater. Tick n if self-aminoacylation is less than 1.

Sample answers from the record:
CUACUACAAACAAGCGGUCUG [Fam1A.1 aminoacylation ribozyme variant] = y
CUACAUCAAACAAUCCGUCUG [Fam1A.1 aminoacylation ribozyme variant] = n
AGUCACCUGGGUCAUCGGGUG [Fam2.2 aminoacylation ribozyme variant] = y
CUACUUCAAACAAACGGUUUG [Fam1A.1 aminoacylation ribozyme variant] = n
ACACACUUCAAGCAAUCGGUG [Fam1B.1 aminoacylation ribozyme variant] = y
AAGUUUGCUAAUAGACGCAUG [Fam3.1 aminoacylation ribozyme variant] = n
CCACAAUUCAAGCAAUCGGAC [Fam1B.1 aminoacylation ribozyme variant] = n

Now look at this one.
Query: For this sequence, is measured self-aminoacylation 1 or higher? CUACUUCAAACCAUCGGUCAG [Fam1A.1 aminoacylation ribozyme variant]
Response: n

* * *

This listing pairs sequences with measured self-aminoacylation.
system: biotinyl-Trp-oxazolone; experiment: self-aminoacylation, catalytic enhancement (BWO) (fold over background); higher = more active; k-Seq, kA / k0A0; sequences stand for … in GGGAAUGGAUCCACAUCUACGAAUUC…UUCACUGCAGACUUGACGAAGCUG
Fewer inactive variants are shown than the library holds.
Number, no unit, nothing else.

As a guide, the following entries are already answered.
AUUCACCUAUGUCAUCGGGGG [Fam2.2 aminoacylation ribozyme variant] = 1.58
CUACUUCAACCUAUCGGUCUG [Fam1A.1 aminoacylation ribozyme variant] = 1.02
CUACUUCAAUCAAUCGGUCCG [Fam1A.1 aminoacylation ribozyme variant] = 4.75
AUUCGCCUAGUUCAUCGGGUG [Fam2.2 aminoacylation ribozyme variant] = 3.62
AGGUUUGCUAAUAGCCGCAAG [Fam3.1 aminoacylation ribozyme variant] = 2.25

Query: Data request, read-out self-aminoacylation, for AUGACCCUGGUUAUCGAGUGA [Fam2.1 aminoacylation ribozyme variant]
Response: 8.52

Query: Data request, read-out self-aminoacylation, for GUUCACCUAGGUCAUCGGGCG [Fam2.2 aminoacylation ribozyme variant]
Response: 4.17

Query: Data request, read-out self-aminoacylation, for AUCCACCUAGGUCAUCGAGUG [Fam2.2 aminoacylation ribozyme variant]
Response: 5.78

Query: Data request, read-out self-aminoacylation, for CUACUUCAAACAUUUGGUCUG [Fam1A.1 aminoacylation ribozyme variant]
Response: 0.678

* * *

test system: biotinyl-Ile-oxazolone; assay: self-aminoacylation, catalytic enhancement (BIO) (fold over background); higher = more active; k-Seq, kA / k0A0; sequences stand for … in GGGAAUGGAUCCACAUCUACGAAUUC…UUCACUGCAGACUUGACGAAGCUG
This sample holds only a part of the variants without activity.
Entry class follows self-aminoacylation: I (below 0.9), II (0.9 to below 3), III (3 or more)

Sample answers from the record:
AUUCACCUAGGUAAUCGGGUC [Fam2.2 aminoacylation ribozyme variant] = I
AAGUUUGCUAGUAGUCGCAAG [Fam3.1 aminoacylation ribozyme variant] = I
AUUAACCUAGGUCAUCGGCUG [Fam2.2 aminoacylation ribozyme variant] = II
CCAUACUGCAAGCAAUCGGUC [Fam1B.1 aminoacylation ribozyme variant] = II
CUACUUCAAACUAUCGCUCUG [Fam1A.1 aminoacylation ribozyme variant] = I
AUUACCCUGGUAAGCGAGUGA [Fam2.1 aminoacylation ribozyme variant] = II
AUUCACCAAGGUCAGCGGGUG [Fam2.2 aminoacylation ribozyme variant] = III
AUUCACGUAGGUCAUUGGGUG [Fam2.2 aminoacylation ribozyme variant] = III

Now look at this one.
Query: Categorize the following entry: CUUCGUCAAACAAUCGGUCUG [Fam1A.1 aminoacylation ribozyme variant]
Response: II
